# assayed system: Human immunodeficiency virus type 1 reverse transcriptase (Human immunodeficiency virus 1) (UniProt Q72547)
What ID50 was measured for each of the following?
Field format: number, assumed nM, no unit text.

Input: State its ID50 for this molecule: `Cc1c(Cc2c(F)cccc2F)nc(Nc2ccc(C#N)cc2)[nH]c1=O`
Output: 200

Input: State its ID50 for this molecule: Cc1c(Cl)nc(Nc2ccc(C#N)cc2)nc1C(C)c1c(F)cccc1F (configuration not stated)
Output: 8.8

Input: State its ID50 for this molecule: Cc1c(C(C)c2c(F)cccc2F)nc(Nc2ccc(C#N)cc2)[nH]c1=O (configuration not stated)
Output: 0.4

Input: State its ID50 for this molecule: `N#Cc1ccc(Nc2nc(N)cc(Cc3c(F)cccc3F)n2)cc1`
Output: 11

Input: State its ID50 for this molecule: CC(c1cc(Cl)nc(Nc2ccc(C#N)cc2)n1)c1c(F)cccc1F (configuration not stated)
Output: 12

Input: State its ID50 for this molecule: CC(c1cc(N)nc(Nc2ccc(C#N)cc2)n1)c1c(F)cccc1F (configuration not stated)
Output: 11

Input: State its ID50 for this molecule: `Cc1cnc(Nc2ccc(C#N)cc2)nc1Cc1c(F)cccc1F`
Output: 9
